The measured values listed here are drawn from PubChem BioAssay (NCI).

Assay: NCI Yeast Anticancer Drug Screen. Data for the mec2-1 strain (AID 157)
Details: S. cerevisiae mec2-1 strain, at 50.0 µM, stronger effect = higher value
Compounds without any hit were thinned out: in the full panel of roughly 79,000, 15% have a hit.
measurement kind: growth inhibition (%)

compound	numeric readout
CN(C)Cc1c[nH]c2nc[nH]c(=O)c12	-31.4
COc1ccc(C(C#N)N2CCCCC2)cc1 (stereo not drawn)	-6.25
CCCCCCCCCCCCCCCCOCC(O)CO (stereo not drawn)	-29.2
CN(NC(=O)CCCl)C1=NCCN1	-4.6
O=C(O)c1sccc1Cc1ccsc1	-10.8
O=C1c2ccccc2C2(O)Oc3cccc(O)c3C12O (stereo not drawn)	4.55
CC(C)NC(c1ccccc1)c1ccccc1	-11.7
OC1c2c(ccc3ccccc23)CCC1N1CCCCC1 (stereo not drawn)	-4.45
O=S(=O)(Nc1cccc(C(F)(F)F)c1)c1ccc(F)cc1	9.5
COC1CC(NC(=O)c2ccccc2)C(O)C(C)O1 (stereo not drawn)	18.3
BrC1CCC(Br)CC1 (stereo not drawn)	-11.1
CCOC(=O)c1c(Nc2ccc(OC)cc2)n[nH]c1C	-34.3
CC(=O)[C@H]1CC[C@H]2[C@@H]3CC=C4C=CCC[C@@H]4[C@H]3CC[C@]12C	20.1
